Where do the numbers come from? From ChEMBL document CHEMBL1201862.

System: RXF 393
MEASUREMENT_DESCRIPTION: NCI tumour cell line growth inhibition, 48 h
Activity calls are given as the source filed them. Cut-off read from the data, not from the text of the source: active = GI50 up to about 1.1 µM and inactive = higher.
Listing of entries alongside the reported GI50.
ASSAY_READOUT: GI50

>>> print(df.to_string())
                                   compound                value
0  COC(=O)/C(=N\NC(=O)C[N+](C)(C)C)C(C(=O)OC)C(=O)C(=O)Nc1ccccc1C(N)=O (stereo not given)  > 100 µM (inactive)
1  Cc1nn2c(C(=O)N/N=C/c3ccc([N+](=O)[O-])cc3)c(C)nc2s1  > 100 µM (inactive)
2                 C#CCSc1nc(-c2ccco2)n[nH]1  > 100 µM (inactive)
3  CCCCCCCCCCCCCCCC(=O)Nc1ccn(C2CCC(COP(=O)(O)OCC3OC(n4cc(F)c(=O)[nH]c4=O)CC3OC(C)=O)O2)c(=O)n1 (stereo not given)   22.4 µM (inactive)
4  Nc1nc(Cl)c(N)c(NCC2(CO)CC(OCc3ccccc3)C2)n1 (stereo not given)  > 100 µM (inactive)

----------
System: T47D
MEASUREMENT_DESCRIPTION: NCI tumour cell line growth inhibition, 48 h
Active and inactive are the calls of the source. Rule as the data show it: active = GI50 up to about 1.1 µM and inactive = higher.
Below, each entry is listed alongside its reported GI50.
ASSAY_READOUT: GI50

                                    compound  assay_readout                value
 0               CCCCCCCCCOC(=O)c1cnc(Cl)cn1           GI50   22.1 µM (inactive)
 1  COC(=O)n1c(=O)n(-c2ccccc2)c(=O)n1C(=O)Nc1ccccc1           GI50  > 100 µM (inactive)
 2  O=C(/C=C/c1ccccc1)c1cc(CN2CCOCC2)c(O)c(CN2CCOCC2)c1           GI50     20 µM (inactive)
 3                     c1cc2nnc1SCCSCCCSCCS2           GI50  > 100 µM (inactive)
 4     O=C1c2ccccc2-c2[nH]c3cn[nH]c(=O)c3c21           GI50  > 100 µM (inactive)
 5  CC1=C(N2CC2)C(=O)c2nc3n(c2C1=O)CCC3O (configuration not stated)           GI50    0.395 µM (active)
 6  COc1ccc(/C=C2\CN(C)CC3C2=NN(c2ccccc2)C3c2ccc(OC)cc2)cc1 (configuration not stated)           GI50  > 100 µM (inactive)
 7             Nc1ccc(S(=O)(=O)NCc2nccs2)cc1           GI50   24.1 µM (inactive)
 8  Clc1ccc(-c2nnc(C34CC5CC(CC(C5)C3)C4)o2)cc1           GI50  > 100 µM (inactive)
 9  O=C(O)CC(NC(=O)/C(=C/c1ccccc1)NC(=O)c1ccccc1)C(=O)O (configuration not stated)           GI50  > 100 µM (inactive)
10              CN(C)CCCNC(=O)N/N=C/c1ccccn1           GI50   > 10 µM (inactive)
11  CO/C=C(/C(=O)OC)c1ccccc1[C@H]1C[C@@H]1c1ccccc1           GI50   18.6 µM (inactive)

----------
System: BT-549
MEASUREMENT_DESCRIPTION: NCI tumour cell line growth inhibition, 48 h
Calls of active or inactive are those of the source. Rule as the data show it: active = GI50 up to about 1.1 µM and inactive = higher.
Outcome codes: active, inactive

>>> print(df.to_string())
                                    compound     group
 0     CN(C)c1ccc(/C=C2\Oc3cc(O)ccc3C2=O)cc1  inactive
 1  O=C1N(c2ccccc2)C(=S)/C(=C/c2ccc(Cl)cc2)N1c1ccc(Cl)cc1  inactive
 2  COc1cc(N(Cc2ccc3nc(OC)c(OC)nc3c2)Cc2ccc3nc(OC)c(OC)nc3c2)cc(OC)c1OC  inactive
 3  CC1OC(O[C@H]2C3C=CO[C@@H](OC4OC(CO)C(O)C(O)C4O)C3[C@@]3(COC(=O)/C=C/c4ccccc4)O[C@@H]23)C(O)C(O)C1O (stereo partly drawn)  inactive
 4  CC(CN(C)C)C(=O)/C=C/c1ccc(Cl)c(Cl)c1 (stereo not drawn)  inactive
 5  CC(C)(C)N1CC1CNC(=O)C(=O)NCC1CN1C(C)(C)C (stereo not drawn)  inactive
 6  CC(=O)N1C(c2[nH]c3ccccc3c2-c2ccccc2)CCN1c1ccccc1 (stereo not drawn)  inactive
 7         O=C(O)c1nc2ccccc2nc1NCc1ccc(F)cc1  inactive
 8  COC(=O)c1c(O)ccc2c1c1c(n2Cc2ccccn2)C(=O)c2ccccc2C1  inactive
 9  COC(=O)n1c(=O)n(-c2ccccc2)c(=O)n1C(=O)Nc1ccccc1  inactive
10                 C#CCSc1nc(-c2ccco2)n[nH]1  inactive
11  C[C@]12CC[C@H]3[C@@H](CCC4=CC(=O)CC[C@@]43C)[C@@H]1CC[C@@H]2C(=O)Nc1ccc([N+](=O)[O-])c(C(F)(F)F)c1  inactive
12  CC1C(C#N)(C#N)C(C#N)=C(N)C1(C)[N+](=O)[O-] (stereo not drawn)  inactive
13               O=C1C=C(Br)c2c(Br)sc(Br)c21  inactive
14  O[C@@]12Cc3c([nH]c4ccccc34)[C@@H]3Oc4c(-c5ccccc5)ccc5c4[C@@]31CCN(CC1CC1)[C@@H]2C5  inactive
15                        O=C(O)CN1CCNCCNCC1  inactive
16  COC(=O)C1=CSC2(S1)C(C(=O)OC)=CSc1c2ss/c1=N\c1ccccc1 (stereo not drawn)  inactive
17  Cc1cn(C2CC(N=[N+]=[N-])C(C(=O)O)O2)c(=O)[nH]c1=O (stereo not drawn)  inactive
18  OCC(O)COCn1cc(Cn2ncc3c(O)ncnc32)nn1 (stereo not drawn)  inactive
19               CCCCCCCCCOC(=O)c1cnc(Cl)cn1  inactive
20     O=C1c2ccccc2-c2[nH]c3cn[nH]c(=O)c3c21  inactive
21  C[N+](C)(C)CC1Cc2ccccc2C1=O (stereo not drawn)  inactive
22  CCOC(=O)c1[nH]c2cccc3c2c1CC(Br)C3=O (stereo not drawn)  inactive
23         C/C(=N\Nc1nc2ccccc2[nH]1)c1cnccn1  inactive
24  CC(C)(C)CN1[C@@H]2CCCC[C@H]2N(CC(C)(C)C)P1(=O)C(O)/C=C/c1ccccc1 (stereo partly drawn)  inactive
25  CC(=O)O[C@@H]1CO[C@H]2O[C@H]3[C@@H](C(C=O)=C[C@H](O)[C@@H]4C5=C(C(C)C)CC[C@]5(C)CC[C@@]34C)[C@@]2(O)C1=O [STRIATIN E]    active
26       CN(/N=C/c1ccc(Cl)c(Cl)c1)C1=NCCCCN1  inactive
27  COc1cc2c(cc1OC)CN1CCc3ccccc3CC1C2 (stereo not drawn)  inactive
28  CCCCCCCCCCCCCCCC(=O)Nc1ccn(C2CCC(COP(=O)(O)OCC3OC(n4cc(F)c(=O)[nH]c4=O)CC3OC(C)=O)O2)c(=O)n1 (stereo not drawn)  inactive
29           O=C1NC(N2CCOCC2)=N/C1=C\c1ccco1  inactive
30  C=CC(C)CCC(C/C=C(\C)CCC=C(C)C)C(=C)CCCC(C)C (stereo not drawn)  inactive
31  CON(C)C(=O)C(C)NC(=O)OC(C)(C)C (stereo not drawn)  inactive
32               Cc1ccsc1/C=N/Nc1nc2ccccc2s1  inactive
33  C=C1C[C@@H](O)[C@@H](Br)C(C)(C)[C@]12CCC(C)(Cl)C(Br)C2 (stereo partly drawn)  inactive
34  O=C1CCCC2C3CC(CN12)C1CCCCN1C3.[O-][Cl+3]([O-])([O-])O (stereo not drawn)  inactive
35  CC1CCC(C(C)C2C(O)CC3C4CC=C5CC(O)CCC5(C)C4CCC32C)NC1 (stereo not drawn)  inactive
36      O=C(Nc1cccc2ccccc12)c1cc2ccccc2oc1=O  inactive
37                 C/C=C/C=C/c1nc(C#N)c(N)o1  inactive
38            Cc1cc(O)c2cc3c(O)c(O)ccc3cc2c1    active
39  CCOC(=O)C(NC(=O)c1cccc(Cl)c1)(N1CCN(c2cc3c(cc2F)c(=O)c(C(=O)O)cn3CC)CC1)C(F)(F)F (stereo not drawn)  inactive
40      Clc1ccc(CNc2nc(Cl)c3nc[nH]c3n2)cc1Cl  inactive
41  CN1C(=O)C(CC(=O)O)NC1=S (stereo not drawn)  inactive
42                    c1cncc(CNCCN2CCNCC2)c1  inactive
